- target.or.system: DRB1*0301 (DR3) (Homo sapiens, UniProt P01903+P01911, A100K/A102G/A103R/A169T/F55Y/I96L/K41T/L162R/M171V/P40S/Q125H/Q178H/Q39Y/R42S/S66N/T106N/T262R/W38E/Y61H)
- Sequence (P01903 26-254 limits assumed, other chains not shown): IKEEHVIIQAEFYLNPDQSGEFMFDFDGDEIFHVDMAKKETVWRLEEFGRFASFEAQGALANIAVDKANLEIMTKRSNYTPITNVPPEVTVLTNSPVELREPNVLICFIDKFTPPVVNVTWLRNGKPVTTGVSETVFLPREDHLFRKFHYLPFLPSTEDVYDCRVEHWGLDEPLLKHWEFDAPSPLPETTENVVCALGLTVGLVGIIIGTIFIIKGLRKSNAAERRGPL
- procedure.text: HLA class II peptide binding assay, purified HLA
- run.parameters: Table XIX, DR supermotif peptides; unit not given
Below, each entry is listed alongside its reported DR3 binding data.

Input CC(C)C[C@H](NC(=O)[C@H](CO)NC(=O)[C@H](C)NC(=O)[C@H](CC(N)=O)NC(=O)[C@@H](NC(=O)[C@@H]1CCCN1C(=O)[C@H](CC(C)C)NC(=O)[C@H](Cc1ccc(O)cc1)NC(=O)[C@@H](NC(=O)[C@H](CC(C)C)NC(=O)[C@H](CCC(=O)O)NC(=O)[C@H](CC(C)C)NC(=O)[C@@H](N)CC(N)=O)[C@@H](C)O)[C@@H](C)O)C(=O)N[C@@H](CO)C(=O)N[C@@H](Cc1ccccc1)C(=O)O , output reported DR3 binding data.
0.0010

Fill in reported DR3 binding data for this entry: CC(C)C[C@H](NC(=O)[C@@H](NC(=O)[C@H](CCC(=O)O)NC(=O)[C@H](Cc1ccccc1)NC(=O)[C@@H](NC(=O)[C@H](CCC(N)=O)NC(=O)[C@H](CC(C)C)NC(=O)[C@H](CCC(N)=O)NC(=O)[C@H](CCC(=O)O)NC(=O)[C@@H]1CCCN1C(=O)[C@H](CCC(N)=O)NC(=O)[C@H](CC(C)C)NC(=O)[C@@H]1CCCN1C(=O)[C@H](C)NC(=O)[C@@H](N)[C@@H](C)O)C(C)C)[C@@H](C)O)C(=O)O
0.0023

Write down DR3 binding data measured for item CC[C@H](C)[C@H](NC(=O)[C@H](CO)NC(=O)[C@H](CCC(=O)O)NC(=O)[C@H](CC(C)C)NC(=O)[C@H](C)NC(=O)[C@H](CCSC)NC(=O)[C@H](Cc1c[nH]c2ccccc12)NC(=O)[C@H](CCCCN)NC(=O)[C@@H](NC(=O)[C@@H]1CCCN1C(=O)[C@@H](NC(=O)[C@@H](N)CCCCN)C(C)C)[C@@H](C)CC)C(=O)N[C@@H](CC(C)C)C(=O)N[C@@H](CCCNC(=N)N)C(=O)N[C@@H](CCCNC(=N)N)C(=O)O
0.0620

---

- Tested on: A3-supertype alleles (A*0301, A*1101, A*3101, A*3301, A*6801)
- procedure.text: A3-supertype cross-reactive binding
- Set-up: species or system human
- run.parameters: of five A3-supertype alleles tested
Where a SMILES comes first, the peptide text is derived from it. [ ]: non-standard residue; d: D form. Abu = CC[C@H](N)C(=O)O
endpoint: No. of A3 Alleles Crossbound

Before answering, review these 3 worked examples.
CC(C)C[C@H](NC(=O)[C@H](CCC(N)=O)NC(=O)[C@H](CC(=O)O)NC(=O)[C@H](Cc1c[nH]c2ccccc12)NC(=O)[C@@H]1CCCN1C(=O)[C@@H](NC(=O)[C@@H](NC(=O)[C@@H](N)Cc1c[nH]cn1)C(C)C)C(C)C)C(=O)N[C@@H](Cc1ccccc1)C(=O)N[C@@H](CCCCN)C(=O)O    3
CC(C)[C@H](NC(=O)[C@@H](N)[C@@H](C)O)C(=O)N[C@@H](CS)C(=O)N[C@@H](C)C(=O)NCC(=O)NCC(=O)N[C@@H](CS)C(=O)N[C@@H](C)C(=O)N[C@@H](CCCNC(=N)N)C(=O)O    4
CC(C)C[C@H](NC(=O)[C@H](CCC(N)=O)NC(=O)[C@H](CC(=O)O)NC(=O)[C@H](Cc1c[nH]c2ccccc12)NC(=O)[C@@H]1CCCN1C(=O)[C@@H](NC(=O)[C@@H](NC(=O)[C@@H](N)Cc1c[nH]cn1)[C@@H](C)O)C(C)C)C(=O)N[C@@H](Cc1ccccc1)C(=O)N[C@@H](CCCNC(=N)N)C(=O)O    4

Supply No. of A3 Alleles Crossbound value. Item: CC(C)C[C@H](NC(=O)[C@H](Cc1ccccc1)NC(=O)[C@H](CCC(N)=O)NC(=O)[C@H](CO)NC(=O)[C@H](CS)NC(=O)[C@H](CC(N)=O)NC(=O)[C@@H](NC(=O)[C@@H](N)CS)C(C)C)C(=O)N[C@@H](CCCNC(=N)N)C(=O)O
4

Give the reported No. of A3 Alleles Crossbound for this compound. CC[C@H](NC(=O)[C@H](CC(N)=O)NC(=O)[C@@H](NC(=O)[C@@H](N)CC)C(C)C)C(=O)N[C@@H](CO)C(=O)N[C@@H](CCC(N)=O)C(=O)N[C@@H](Cc1ccccc1)C(=O)N[C@@H](CC(C)C)C(=O)N[C@@H](CCCNC(=N)N)C(=O)O [Her2/neu.528.B1B4] (H-[Abu]VN[Abu]SQFLR-OH)
5

---

- target.or.system: DRB1*0301 (DR3) (Homo sapiens, UniProt P01903+P01911, A100K/A102G/A103R/A169T/F55Y/I96L/K41T/L162R/M171V/P40S/Q125H/Q178H/Q39Y/R42S/S66N/T106N/T262R/W38E/Y61H)
- procedure.text: HLA class II peptide binding assay, purified HLA
- run.parameters: Table XXa, DR 3a motif peptides; unit not given
endpoint: DR3 binding data
Give the figure by itself; no unit, no explanation.

Return the recorded DR3 binding data value; entry: CC(C)C[C@H](NC(=O)[C@@H]1CCCN1C(=O)[C@H](C)NC(=O)[C@@H](NC(=O)[C@H](CC(N)=O)NC(=O)[C@H](CO)NC(=O)[C@H](C)NC(=O)[C@@H]1CCCN1C(=O)[C@H](CC(=O)O)NC(=O)CNC(=O)[C@H](CC(=O)O)NC(=O)[C@H](Cc1ccccc1)NC(=O)[C@H](CO)NC(=O)[C@H](CCC(=O)O)NC(=O)[C@@H]1CCCN1)[C@@H](C)O)C(=O)O
−0.0027

---

Listing: pIC50 of selected compounds
- target.or.system: HLA-B*0702 (Homo sapiens)
- Type: binding
- run.parameters: Table XXIV, B7 supermotif peptides
To interpret pIC50, take it as minus log10 of a concentration measured in moles per litre.

Use the examples below as a reference point.
CC[C@H](C)[C@H](NC(=O)[C@@H](NC(=O)[C@H](C)NC(=O)CNC(=O)[C@H](C)NC(=O)[C@@H]1CCCN1C(=O)[C@H](CCCNC(=N)N)NC(=O)[C@H](C)NC(=O)[C@H](C)NC(=O)[C@@H]1CCCN1C(=O)[C@@H](N)Cc1ccccc1)[C@@H](C)O)C(=O)O    7.41
CC[C@H](C)[C@H](NC(=O)[C@@H]1CCCN1C(=O)[C@@H](NC(=O)[C@@H](NC(=O)[C@H](CC(N)=O)NC(=O)[C@H](CC(N)=O)NC(=O)[C@H](CC(C)C)NC(=O)[C@@H]1CCCN1C(=O)[C@@H](N)Cc1ccccc1)[C@@H](C)O)[C@@H](C)O)C(=O)O    8.80

The record that follows has no pIC50 shown yet.
Give measured pIC50 for CC[C@H](C)[C@H](NC(=O)[C@H](C)NC(=O)[C@@H]1CCCN1C(=O)[C@H](CC(C)C)NC(=O)[C@@H]1CCCN1C(=O)CNC(=O)[C@H](CCC(=O)O)NC(=O)[C@H](CCCNC(=N)N)NC(=O)[C@@H]1CCCN1C(=O)[C@@H](N)Cc1ccccc1)C(=O)O (HLA-B*0702 (Homo sapiens)).
7.70

---

- target.or.system: DRB5*0101 (DR2w2β2) (Homo sapiens, UniProt P01903+Q30154)
- procedure.text: HLA class II peptide binding assay, purified HLA
- run.parameters: Table XIX, DR supermotif peptides; unit not given
Lab note: compare DR2w2B2 binding data against 0.004. Equal or greater, write condition met. Smaller, write condition not met.

Here's what some known entries look like.
CC(C)C[C@H](NC(=O)[C@H](CO)NC(=O)[C@H](C)NC(=O)[C@H](CC(N)=O)NC(=O)[C@@H](NC(=O)[C@@H]1CCCN1C(=O)[C@H](CC(C)C)NC(=O)[C@H](Cc1ccc(O)cc1)NC(=O)[C@@H](NC(=O)[C@H](CC(C)C)NC(=O)[C@H](CCC(=O)O)NC(=O)[C@H](CC(C)C)NC(=O)[C@@H](N)CC(N)=O)[C@@H](C)O)[C@@H](C)O)C(=O)N[C@@H](CO)C(=O)N[C@@H](Cc1ccccc1)C(=O)O    condition met
CC[C@H](C)[C@H](NC(=O)CNC(=O)[C@H](CC(C)C)NC(=O)[C@H](CC(C)C)NC(=O)[C@H](CCCNC(=N)N)NC(=O)[C@@H](N)CO)C(=O)N[C@@H](CS)C(=O)N[C@@H](CC(C)C)C(=O)N[C@H](C(=O)N[C@@H](CO)C(=O)N[C@H](C(=O)N[C@H](C(=O)N[C@@H](CCC(N)=O)C(=O)N[C@@H](CC(C)C)C(=O)N[C@H](C(=O)O)C(C)C)C(C)C)[C@@H](C)O)[C@@H](C)O    condition not met

Threshold query (DR2w2B2 binding data >= 0.004) on CC[C@H](C)[C@H](NC(=O)CNC(=O)[C@H](CC(=O)O)NC(=O)[C@H](Cc1ccc(O)cc1)NC(=O)[C@@H]1CCCN1C(=O)[C@H](CCCCN)NC(=O)[C@H](C)NC(=O)CNC(=O)[C@H](Cc1ccccc1)NC(=O)[C@@H](NC(=O)[C@H](CCSC)NC(=O)[C@H](CC(C)C)NC(=O)[C@H](CCC(=O)O)NC(=O)[C@H](Cc1c[nH]c2ccccc12)NC(=O)[C@@H](N)C(C)C)[C@@H](C)O)C(=O)O
condition met

For this compound, is measured DR2w2B2 binding data 0.004 or higher? CC(C)C[C@H](NC(=O)[C@H](CO)NC(=O)[C@H](C)NC(=O)[C@H](CC(N)=O)NC(=O)[C@@H](NC(=O)[C@@H]1CCCN1C(=O)[C@H](CC(C)C)NC(=O)[C@H](Cc1ccc(O)cc1)NC(=O)[C@@H](NC(=O)[C@@H](N)CC(C)C)[C@@H](C)O)[C@@H](C)O)C(=O)N[C@@H](CO)C(=O)N[C@@H](Cc1ccccc1)C(=O)N[C@@H](CC(C)C)C(=O)N[C@@H](CCC(N)=O)C(=O)N[C@@H](CC(=O)O)C(=O)O
condition met
